# Tested on: 186277-243-T-J2-PDC complex spheroid viability
# protocol-notes: Anticancer human tumor 186277-243-T-J2-PDC patient-derived colon adenocarcinoma cell line growth inhibition [GQUAD]
# setup-conditions: second compound 3.16 µM; first compound 0.0316 µM; stronger effect = lower value

# compound, unit-spec, viability, T/C
records = [
    ("CC[C@@]1(O)C(=O)OCc2c1cc1n(c2=O)Cc2cc3c(CN(C)C)c(O)ccc3nc2-1 + CN(C)c1ccc(Nc2c3ccc(NC(=O)CCN4CCCC4)cc3nc3cc(NC(=O)CCN4CCCC4)ccc23)cc1", "%", 74.4),
    ("CC(C)n1c(=O)n(C)c2cnc3cc(F)c(-c4ccc(OCCCN5CCCCC5)nc4)cc3c21 + CN(C)c1ccc(Nc2c3ccc(NC(=O)CCN4CCCC4)cc3nc3cc(NC(=O)CCN4CCCC4)ccc23)cc1", "%", 101),
    ("CC1COCCN1c1cc(-c2ccnn2C)c2ccnc(-c3ccn[nH]3)c2n1 (stereo not drawn) + CN(C)c1ccc(Nc2c3ccc(NC(=O)CCN4CCCC4)cc3nc3cc(NC(=O)CCN4CCCC4)ccc23)cc1", "%", 60.6),
]

---

Consider the following molecules and their measured pIC50 readings.
# System: 186277-243-T-J2-PDC complex spheroid viability
# protocol-notes: Anticancer human tumor 186277-243-T-J2-PDC cell line growth inhibition [GQUAD];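 note: spheroids exposed to drugs for 7 days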
# setup-conditions: curve of first compound; second compound 1 µM
# Excerpt: DNA G-quadruplex Stabilizer Agents in Combinations in Complex Spheroids A high-throughput screen of multi-cell type tumor spheroids was designed to identify active combinations of DNA G-quadruplex stabilizer agents and targeted small molecules. […] Compounds. […] If the clinical Cmax for an agent had not been determined, the highest concentration tested was 10 microM. […]
pIC50: −log10 of the molar value.

# molecule, operator, pIC50
records = [
    ("Nc1ccn(C2OC(CO)C(O)C2(F)F)c(=O)n1 (stereo not given) + Cc1cnc(CNC(=O)c2c(=O)c3ccc(N4CCCN(C)CC4)nc3n3c2sc2ccccc23)cn1", ">", 7.50),
    ("C#Cc1c(F)ccc2cc(O)cc(-c3ncc4c(N5CC6CCC(C5)N6)nc(OCC56CCCN5CC(F)C6)nc4c3F)c12 (stereo not given) + Cc1cnc(CNC(=O)c2c(=O)c3ccc(N4CCCN(C)CC4)nc3n3c2sc2ccccc23)cn1", ">", 7.50),
    ("Nc1ccn(C2OC(CO)C(O)C2(F)F)c(=O)n1 (stereo not given) + CN(C)c1ccc(Nc2c3ccc(NC(=O)CCN4CCCC4)cc3nc3cc(NC(=O)CCN4CCCC4)ccc23)cc1", ">", 7.50),
    ("COc1cccc2c1C(=O)c1c(O)c3c(c(O)c1C2=O)CC(O)(C(=O)CO)CC3OC1CC(N)C(O)C(C)O1 (stereo not given) + CN(C)c1ccc(Nc2c3ccc(NC(=O)CCN4CCCC4)cc3nc3cc(NC(=O)CCN4CCCC4)ccc23)cc1", "=", 6.55),
    ("COc1ccc([C@@H](O)c2cc(-c3ncnc4cc(N5CCOCC5)ccc34)c(F)cc2Cl)nn1 + CN(C)c1ccc(Nc2c3ccc(NC(=O)CCN4CCCC4)cc3nc3cc(NC(=O)CCN4CCCC4)ccc23)cc1", "=", 5.35),
]

---

# Tested on: 186277-243-T-J2-PDC complex spheroid viability
# protocol-notes: Anticancer human tumor 186277-243-T-J2-PDC cell line growth inhibition [GQUAD];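 note: spheroids exposed to drugs for 7 days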;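 for viability, T/C: 100% = DMSO vehicle control viability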
# setup-conditions: second compound 0.316 µM; first compound 0.1 µM; stronger effect = lower value
# note: boundary value 20% maps to n; viability, T/C below it maps to y

# compound, classification
rows = [
    ("CC1COCCN1c1cc(C2(S(C)(=N)=O)CC2)nc(-c2ccnc3[nH]ccc23)n1 (stereo not given) + CN(C)c1ccc(Nc2c3ccc(NC(=O)CCN4CCCC4)cc3nc3cc(NC(=O)CCN4CCCC4)ccc23)cc1", "n"),
    ("CC(=O)O[C@H]1C(=O)[C@@]2(C)[C@H]([C@H](OC(=O)c3ccccc3)[C@]3(O)C[C@H](OC(=O)[C@H](O)[C@@H](NC(=O)c4ccccc4)c4ccccc4)C(C)=C1C3(C)C)[C@]1(OC(C)=O)CO[C@@H]1C[C@@H]2O + CN(C)c1ccc(Nc2c3ccc(NC(=O)CCN4CCCC4)cc3nc3cc(NC(=O)CCN4CCCC4)ccc23)cc1", "y"),
    ("C=CCn1c(=O)c2cnc(Nc3ccc(N4CCN(C)CC4)cc3)nc2n1-c1cccc(C(C)(C)O)n1 + Cc1[nH]c2ccc(F)cc2c1-c1nc2c3cccnc3c3ncccc3c2[nH]1", "n"),
    ("CC1COCCN1c1cc(C2(O)CC3CCC(C2)O3)c2cnn(-c3ccn[nH]3)c2n1 (stereo not given) + Cc1[nH]c2ccc(F)cc2c1-c1nc2c3cccnc3c3ncccc3c2[nH]1", "y"),
    ("CC(=O)O[C@H]1C(=O)[C@@]2(C)[C@H]([C@H](OC(=O)c3ccccc3)[C@]3(O)C[C@H](OC(=O)[C@H](O)[C@@H](NC(=O)c4ccccc4)c4ccccc4)C(C)=C1C3(C)C)[C@]1(OC(C)=O)CO[C@@H]1C[C@@H]2O + Cc1cnc(CNC(=O)c2c(=O)c3ccc(N4CCCN(C)CC4)nc3n3c2sc2ccccc23)cn1", "y"),
]
